Data provenance is ChEMBL document CHEMBL4350964.

# PROCEDURE_SUMMARY: Selectivity ratio of IC50 for human GES-1 cells to IC50 for human MGC803 cells
# Format: toxicity
# RECORDED_CONDITIONS: GES-1 cells and MGC803 cells, read-out: Ratio IC50
Property: selectivity ratio; scope: individual compounds

Sample records with selectivity ratio:
{"columns": ["SMILES_DATA", "RESULT"],
 "data": [
  ["CCCn1c(SCc2ccc(F)cc2)nc2c1c(=O)[nH]c(=O)n2C", "2 to 3"],
  ["CCCn1c(SCc2cccc(C)c2)nc2c1c(=O)[nH]c(=O)n2C", "2 to 3"]
]}

Reported selectivity ratio ( `CCCn1c(SCc2ccccc2C)nc2c1c(=O)[nH]c(=O)n2C` ) = 2 to 3
